src = the supplement of paper PMC6555819

tested on: RARa homodimer (NR concentration 270 nM); assay: PBM binding z-score (relative to random genomic background probes); higher = stronger binding; sequences stand for … in GC…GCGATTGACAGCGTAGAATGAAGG
Provide the recorded PBM binding z-score for the entries that follow.
Format: numeric value only, no unit, no commentary.

*Q* Tell us which PBM binding z-score value is on record for `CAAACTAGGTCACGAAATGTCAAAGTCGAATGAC`
*A* 1.83

*Q* Recall and state the measured PBM binding z-score for `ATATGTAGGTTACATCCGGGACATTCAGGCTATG` .
*A* 0.969

*Q* Supply reported PBM binding z-score belonging to this sequence: `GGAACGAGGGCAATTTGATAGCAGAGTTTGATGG`
*A* -0.342

*Q* Give PBM binding z-score for the following sequence: `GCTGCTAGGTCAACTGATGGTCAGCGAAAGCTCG`
*A* 0.244

*Q* Check the records and state PBM binding z-score for `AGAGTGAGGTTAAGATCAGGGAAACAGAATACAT`
*A* 1.55

*Q* State its PBM binding z-score: `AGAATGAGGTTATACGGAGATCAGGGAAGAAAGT`
*A* 0.352

*Q* Name the recorded PBM binding z-score of the sequence listed here: `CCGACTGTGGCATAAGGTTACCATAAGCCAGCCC`
*A* 0.166

*Q* Determine from records and report PBM binding z-score for `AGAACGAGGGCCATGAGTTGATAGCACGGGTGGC`
*A* -0.362

*Q* Using the record for `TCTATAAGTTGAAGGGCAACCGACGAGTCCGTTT` , state its measured PBM binding z-score.
*A* 0.192

*Q* Note PBM binding z-score for the sequence shown: `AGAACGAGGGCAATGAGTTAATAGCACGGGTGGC`
*A* -0.224

*Q* Quickly give me recorded PBM binding z-score for `ATCTTTAGGTAACAAGTTCAGTGAAAGAGAGGAC`
*A* 1.15

*Q* Give reported PBM binding z-score value for `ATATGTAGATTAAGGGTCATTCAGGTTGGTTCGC`
*A* 2.24

*Q* Query PBM binding z-score for `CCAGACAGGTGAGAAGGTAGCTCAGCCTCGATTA`
*A* 0.0537

*Q* Identify PBM binding z-score associated with the sequence `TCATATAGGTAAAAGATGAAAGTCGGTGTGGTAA`
*A* 1.1

*Q* Identify measured PBM binding z-score corresponding to `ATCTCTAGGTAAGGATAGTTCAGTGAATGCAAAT`
*A* 1.04

*Q* For the sequence `ACTCGGAGAACAAAGGTCAGAGCTACGCCAGTGA` , report PBM binding z-score.
*A* 0.493

*Q* Recall and state the measured PBM binding z-score for `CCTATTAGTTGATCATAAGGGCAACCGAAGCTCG` .
*A* 1.25

*Q* Consider the sequence `TCGAGTACGTTAGGGGCATTCAGAATGGCGTCGA` . State its measured PBM binding z-score.
*A* -0.866

*Q* Output PBM binding z-score of `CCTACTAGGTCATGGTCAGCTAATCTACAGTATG`
*A* 0.932

*Q* Given `TAGCCTAGGTCAGTTCGGGCCAGTATACGCTATA` , respond with its PBM binding z-score.
*A* -0.951

*Q* Specify measured PBM binding z-score for `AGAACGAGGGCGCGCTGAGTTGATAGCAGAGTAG` .
*A* -1.26

*Q* // Input: `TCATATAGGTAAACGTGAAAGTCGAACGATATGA` . Output its PBM binding z-score only.
*A* 0.345

*Q* Kindly indicate its recorded PBM binding z-score. Item: `GCATATAGGTAATACTAGGTGAAAGTCCGATTGT`
*A* 0.695

*Q* Return reported PBM binding z-score. Input sequence: `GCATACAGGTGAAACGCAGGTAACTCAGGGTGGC`
*A* -0.373

*Q* Fill in reported PBM binding z-score for this entry: `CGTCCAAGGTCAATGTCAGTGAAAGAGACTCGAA`
*A* 0.639

*Q* Please look at this sequence and report its PBM binding z-score: `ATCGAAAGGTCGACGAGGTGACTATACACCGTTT`
*A* 0.449
